assay: Selectivity index, ratio of IC50 for equine serum BuChE to IC50 for electric eel AChE
Assign Ratio IC50 to each entry below.
Answers are plain numbers.

CCN(CC)CCCOc1ccc2c(c1)NC(=O)CC2; 2.7
CC(C)N1CCN(CCCCCCOc2ccc3c(c2)NC(=O)CC3)CC1; 2.7
O=C1CCc2ccc(OCCCCCCN3CCC(N4CCCC4)CC3)cc2N1; 6.2
O=C1CCc2ccc(OCCCN3CCN(c4ccccn4)CC3)cc2N1; 1.5
O=C1CCc2ccc(OCCCCCCN3CCCC3)cc2N1; 0.33

Please look at the items below and tell me Ratio IC50 for each one, in order.
1. CC(C)N1CCN(CCCCOc2ccc3c(c2)NC(=O)CC3)CC1
2. O=C1CCc2ccc(OCCCN3CCN(Cc4ccccc4)CC3)cc2N1
3. O=C1CCc2ccc(OCCCCCCN3CCc4ccccc4C3)cc2N1
4. O=C1CCc2ccc(OCCCCCN3CCN(Cc4ccccc4)CC3)cc2N1

Result string:
[4.4, 14.9, 0.1, 1.3]

###

organism: Rattus norvegicus; experiment: Selectivity index, ratio of IC50 for rat serum BuChE to IC50 for 5% rat cortex homogenate AChE
Assign Ratio IC50 to each entry below.
Numbers only.

Look over these answered cases.
CCN(CC)CCCCCOc1ccc2c(c1)NC(=O)CC2; 0.4
C#CCN(CCCCOc1ccc2c(c1)NC(=O)CC2)Cc1ccccc1; 1.4
C#CCN(CCCCCCOc1ccc2c(c1)NC(=O)CC2)Cc1ccccc1; 1.9
O=C1CCc2ccc(OCCCCCN3CCc4ccccc4C3)cc2N1; 1.4
O=C1CCc2ccc(OCCCCCCN3CCC(N4CCCC4)CC3)cc2N1; 1.6
C#CCN(CCCOc1ccc2c(c1)NC(=O)CC2)Cc1ccccc1; 1.2
CCN(CC)CCCCCCOc1ccc2c(c1)NC(=O)CC2; 0.6
O=C1CCc2ccc(OCCCCCCN3CCN(c4ccccn4)CC3)cc2N1; 1.4

Please look at the items below and tell me Ratio IC50 for each one, in order.
1. O=C1CCc2ccc(OCCCCCN3CCCCC3)cc2N1
2. CC(C)N1CCN(CCCCCCOc2ccc3c(c2)NC(=O)CC3)CC1
3. O=C1CCc2ccc(OCCCCN3CCN(c4ccccn4)CC3)cc2N1
4. CCN(CC)CCCCOc1ccc2c(c1)NC(=O)CC2
5. O=C1CCc2ccc(OCCCCN3CCN(Cc4ccccc4)CC3)cc2N1
6. O=C1CCc2ccc(OCCCCCCN3CCC(Cc4ccccc4)CC3)cc2N1
7. O=C1CCc2ccc(OCCCN3CCN(c4ccccn4)CC3)cc2N1
8. C#CCN(CCCCCOc1ccc2c(c1)NC(=O)CC2)Cc1ccccc1

Result string:
1. 3.8
2. 0.7
3. 1.9
4. 0.7
5. 2.3
6. 1.9
7. 2
8. 2.1

Please look at the items below and tell me Ratio IC50 for each one, in order.
1. O=C1CCc2ccc(OCCCN3CCCCC3)cc2N1
2. CCN(CC)CCCOc1ccc2c(c1)NC(=O)CC2
3. O=C1CCc2ccc(OCCCN3CCc4ccccc4C3)cc2N1
4. CC(C)N1CCN(CCCCCOc2ccc3c(c2)NC(=O)CC3)CC1
5. O=C1CCc2ccc(OCCCN3CCN(Cc4ccccc4)CC3)cc2N1
6. O=C1CCc2ccc(OCCCN3CCC(N4CCCC4)CC3)cc2N1
7. O=C1CCc2ccc(OCCCCN3CCc4ccccc4C3)cc2N1
8. O=C1CCc2ccc(OCCCCCN3CCN(c4ccccn4)CC3)cc2N1

Result string:
1.4
1.1
0.8
0.9
2.7
1.3
0.7
1.6

Please look at the items below and tell me Ratio IC50 for each one, in order.
1. O=C1CCc2ccc(OCCCCCCN3CCN(Cc4ccccc4)CC3)cc2N1
2. O=C1CCc2ccc(OCCCCCCN3CCCCC3)cc2N1

Result string:
1: 1.3; 2: 4.5

All figures here come from ChEMBL document CHEMBL4033676.
